All values here come from FireProtDB (doi:10.1006/jmbi.1995.0323).

B1: Subtilisin inhibitor, P01006 (parent)
chain: MRNTGAGPSPSVSRPPPSAAPLSGAALAAPGDAPSALYAPSALVLTVGKGVSATTAAPERAVTLTCAPGPSGTHPAAGSACADLAAVGGDLNALTRGEDVMCPMVYDPVLLTVDGVWQGKRVSYERVFSNECEMNAHGSSVFAF

Variants of: B1
Conditions: Streptomyces albogriseolus; pH 9.5; Thermal; DSC; glycine 25 mM; reversible: yes; structure 3SSI; whole UniProt chain shown
property: change of melting temperature, mutant - wild type (higher = more stable)
Give the value; after it, write the unit.

- M134G: -14.4 °C
- M134A: -5.18 °C
- M134V: -4.33 °C
- M134I: -4.8 °C

Query variant follows.
Exam item: Recall and state the measured change of melting temperature, mutant - wild type (higher = more stable) for M134L .
Marked response: -0.48 °C
